Data credit: patent US11453711B2

assay-details: Body weight and food intake in C57BL/6 mice, fusion protein conjugates, 30 nmol/kg daily 10 days
Type: in vivo
parameter: Body weight reduction at 30 nmol/kg (% reduction compared to vehicle)(Day11) (%)
Give the number; % is assumed, so skip it.

Query string: Please report Body weight reduction at 30 nmol/kg (% reduction compared to vehicle)(Day11) for the following molecule: MLC012: fusion polypeptide SEQ ID NO: 259 conjugated with Moiety A at 12K of Linker (conjugate, Moiety A conjugated at linker K12) HGEGTFTSDVSSYLEEQAAREFIAWLVRGGGGQEPGQEPGQEKGQEPGQEPGQEPGQEPGQEPGQEPGQEPARQGDHCPLGPGRCCRLHTVRASLEDLGWADWVLSPREVQVTMCIGACPSQFRAANLHAQIKTSLHRLRPDTVPAPCCVPASYNPMVLIQRTDTGVSLQTYDDLLARDCHCI
Result string: 30.6

Query string: Please report Body weight reduction at 30 nmol/kg (% reduction compared to vehicle)(Day11) for the following molecule: MLC074: fusion polypeptide SEQ ID NO: 369 conjugated with Moiety B at 41C of Linker (conjugate, Moiety B conjugated at linker C41) HGEGTFTSDVSSYLEEQAAKEFIAWLVRGGGGQEPGAQPGQEPGAQPGQEPGAQPGQEPGAQPGQEPGAQPCQEPGAQPGAQPGAQPGAQPGAQPGAQPGAQPGAQPGAQPARQGDHCPLGPGRCCRLHTVRASLEDLGWADWVLSPREVQVTMCIGACPSQFRAANLHAQIKTSLHRLKPDTVPAPCCVPASYNPMVLIQKTDTGVSLQTYDDLLAKDCHCI
Result string: 20.0
